# SUBJECT_OF_TEST: recombinant human NaV1.8 stably transfected HEK cells (Homo sapiens, UniProt Q9Y5Y9)
# Construct: expressed in transfected cells; host or cells: HEK cells, stably transfected
# Sequence (Q9Y5Y9 whole entry): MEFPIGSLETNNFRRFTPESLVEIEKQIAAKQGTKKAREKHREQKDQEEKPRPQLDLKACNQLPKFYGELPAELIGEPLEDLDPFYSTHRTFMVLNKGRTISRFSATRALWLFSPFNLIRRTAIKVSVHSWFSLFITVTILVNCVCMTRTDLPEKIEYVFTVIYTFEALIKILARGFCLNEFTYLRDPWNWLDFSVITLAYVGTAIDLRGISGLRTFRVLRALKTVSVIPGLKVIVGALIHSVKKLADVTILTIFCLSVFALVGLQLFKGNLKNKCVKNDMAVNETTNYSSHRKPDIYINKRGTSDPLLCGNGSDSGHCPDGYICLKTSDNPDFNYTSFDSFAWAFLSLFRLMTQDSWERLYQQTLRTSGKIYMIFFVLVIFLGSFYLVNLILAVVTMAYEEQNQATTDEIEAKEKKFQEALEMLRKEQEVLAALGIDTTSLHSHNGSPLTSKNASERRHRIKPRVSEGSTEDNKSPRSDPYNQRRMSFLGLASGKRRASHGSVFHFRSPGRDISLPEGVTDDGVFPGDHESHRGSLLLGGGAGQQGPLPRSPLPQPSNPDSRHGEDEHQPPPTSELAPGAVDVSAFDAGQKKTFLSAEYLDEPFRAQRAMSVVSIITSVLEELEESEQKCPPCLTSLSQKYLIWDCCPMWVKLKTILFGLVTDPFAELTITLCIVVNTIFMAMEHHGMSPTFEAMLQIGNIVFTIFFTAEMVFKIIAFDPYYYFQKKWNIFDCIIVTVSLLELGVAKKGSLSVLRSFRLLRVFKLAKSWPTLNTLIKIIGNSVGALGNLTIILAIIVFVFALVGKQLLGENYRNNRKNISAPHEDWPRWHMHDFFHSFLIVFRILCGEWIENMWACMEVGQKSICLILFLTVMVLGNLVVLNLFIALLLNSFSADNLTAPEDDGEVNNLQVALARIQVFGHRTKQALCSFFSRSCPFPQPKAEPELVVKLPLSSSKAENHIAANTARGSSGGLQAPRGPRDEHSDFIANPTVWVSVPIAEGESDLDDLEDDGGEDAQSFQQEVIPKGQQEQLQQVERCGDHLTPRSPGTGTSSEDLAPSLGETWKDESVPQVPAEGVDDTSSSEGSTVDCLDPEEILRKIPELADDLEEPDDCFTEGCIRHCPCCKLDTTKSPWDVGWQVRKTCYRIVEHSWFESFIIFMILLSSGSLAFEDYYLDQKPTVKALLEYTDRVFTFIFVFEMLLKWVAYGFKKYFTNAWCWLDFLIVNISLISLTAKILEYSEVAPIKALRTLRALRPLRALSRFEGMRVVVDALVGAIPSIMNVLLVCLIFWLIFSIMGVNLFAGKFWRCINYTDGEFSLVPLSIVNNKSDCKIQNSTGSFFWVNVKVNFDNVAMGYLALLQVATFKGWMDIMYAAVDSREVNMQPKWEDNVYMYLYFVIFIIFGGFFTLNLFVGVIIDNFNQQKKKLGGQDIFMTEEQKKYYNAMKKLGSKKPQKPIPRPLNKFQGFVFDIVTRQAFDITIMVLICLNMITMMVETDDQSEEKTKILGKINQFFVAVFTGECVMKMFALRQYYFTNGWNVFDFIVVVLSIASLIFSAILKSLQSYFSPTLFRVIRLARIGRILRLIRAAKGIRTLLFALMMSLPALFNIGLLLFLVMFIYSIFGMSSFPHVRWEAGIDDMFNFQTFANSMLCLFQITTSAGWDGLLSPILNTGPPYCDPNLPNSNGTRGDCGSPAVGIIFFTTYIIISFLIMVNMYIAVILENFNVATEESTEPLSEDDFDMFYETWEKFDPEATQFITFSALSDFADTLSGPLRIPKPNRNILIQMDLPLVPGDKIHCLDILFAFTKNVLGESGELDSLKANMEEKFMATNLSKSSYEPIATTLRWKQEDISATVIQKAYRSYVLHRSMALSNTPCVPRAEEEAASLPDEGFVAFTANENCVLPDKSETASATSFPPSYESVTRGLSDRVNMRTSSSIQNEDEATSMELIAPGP
# ASSAY_NAME: Compound profiling on NaV1.8, human NaV1.8 cell line, SyncroPatch384PE automated patch clamp assay (Example 102, first set of compounds, Table 16)
# Assay type: cell-based
# RUN_PARAMETERS: inactivated state block (P2 measurement), human NaV1.8 HEK cells, Table 16 (first set of compounds), read-out: P2IC50
pIC50: −log10 of the molar value.
Quick reference for pIC50 among some compounds

// solved cases for pIC50 follow
Cc1c(C(F)(F)F)nnc(Oc2ccc(OC3CCC3)c(F)c2F)c1C(=O)Nc1cccc(S(C)(=N)=O)c1 (stereo not drawn) [Compound 1492] has a reported pIC50 of ≥ 7.70

Entry under test: `COc1ccc(-c2nnc(Oc3ccc(C#N)cc3OC)c(C(=O)Nc3cccc([S@](C)(=N)=O)c3)c2C)cc1` . Its pIC50 was 7.40 to 7.70

// pIC50 value for N#CC1CC(Oc2ncc(C(F)(F)F)cc2C(=O)Nc2cccc(C(N)=O)c2)C1 (mixture of isomers) : 6.30 to 6.70

---
In plain terms, `Cn1ccc2c(Oc3ncc(C(F)(F)F)cc3C(=O)Nc3cccc(S(C)(=O)=O)c3)cccc21` has a documented pIC50 of 6.30 to 6.70

GET /value?item= COc1cc(C#N)ccc1Oc1nnc(-c2ccc(C)cn2)c(C)c1C(=O)Nc1cccc(S(C)(=N)=O)c1 (stereo not drawn) &field=pIC50 returns 6.30 to 6.70

Measured pIC50 of COc1c(Oc2ncc(C#N)cc2C(=O)Nc2cccc(S(C)(=N)=O)c2)ccc(F)c1F (stereo not drawn) : 7.40 to 7.70

# pIC50 (compound: `Cc1cc(F)ccc1Oc1nnc(C(F)(F)F)c(C)c1C(=O)Nc1cccc(S(N)(=O)=O)c1` ) is ≥ 7.70

Query `CS(=O)(=O)c1cccc(NC(=O)c2cc(C(F)(F)F)cnc2Oc2cccc(S(C)(=O)=O)c2)c1` yields pIC50 of 6.30 to 6.70

###

Listed here are compounds together with their documented pIC50.
# SUBJECT_OF_TEST: recombinant human NaV1.8 stably transfected HEK cells (Homo sapiens)
# Construct: expressed in transfected cells; host or cells: HEK cells, stably transfected
# ASSAY_NAME: Compound profiling on NaV1.8, human NaV1.8 cell line, SyncroPatch384PE automated patch clamp assay (Example 102, first set of compounds, Table 16)
# Format: cell-based
# RUN_PARAMETERS: inactivated state block (P2 measurement), human NaV1.8 HEK cells, Table 16 (first set of compounds), read-out: P2IC50
pIC50: −log10 of the molar value.

The following compounds have reported results that may help.
Briefly, pIC50 measured for COc1cc(C#N)ccc1Oc1nnc(C(F)(F)F)c(C)c1C(=O)Nc1cccc(S(C)(=N)=O)c1 (stereo not drawn) : ≥ 7.70

Consider COc1cc(C#N)ccc1Oc1nnc(-c2nccs2)c(C)c1C(=O)Nc1cccc(S(C)(=N)=O)c1 (stereo not drawn) . Its measured pIC50 is ≥ 7.70

The measured pIC50 associated with `COc1cc(C#N)ccc1Oc1nnc(C(F)(F)F)c(C)c1C(=O)Nc1cccc(S(C)(=O)=O)c1` reads ≥ 7.70

The compound listed as `Cc1cc(C#N)ccc1Oc1nnc(C(F)(F)F)c(C)c1C(=O)Nc1cccc(S(C)(=O)=O)c1` has a reported pIC50 of ≥ 7.70

The compound listed as Cc1nc(OC2CCC2)ccc1Oc1nnc(C(F)(F)F)c(C)c1C(=O)Nc1cccc(S(C)(=N)=O)c1 (single isomer, unassigned) [Compound 1499] has a reported pIC50 of 6.70 to 7.40

Short answer for `Cc1c(C(F)(F)F)nnc(Oc2ccc(OC(F)(F)F)c(F)c2F)c1C(=O)Nc1cccc(S(C)(=O)=O)c1` : pIC50 was ≥ 7.70

New cases:
CS(=N)(=O)c1cccc(NC(=O)c2cc(C(F)(F)F)cnc2Oc2ccc(OC(F)F)c(F)c2)c1 (stereo not drawn) yielded pIC50 of ≥ 7.70

pIC50 in this record for `CC(C)Oc1ccc(Oc2ncc(C(F)(F)F)cc2C(=O)Nc2ccc(C(N)=O)cc2)c(F)c1` : 6.30 to 6.70

pIC50 in this record for COc1cc(F)c(F)cc1Oc1ncc(C(F)(F)F)cc1C(=O)Nc1cccc(S(C)(=N)=O)c1 (stereo not drawn) : 7.40 to 7.70

Lookup result for COc1ncc(C(N)=O)cc1Oc1ncc(C(F)(F)F)cc1C(=O)Nc1cccc(S(C)(=N)=O)c1 (stereo not drawn) ; measured pIC50: 6.30 to 6.70

Lab note: Cc1c(Oc2ncc(C(F)(F)F)cc2C(=O)Nc2cccc(S(C)(=N)=O)c2)ccc(OC(F)(F)F)c1F (stereo not drawn) [Compound 1712] gave pIC50 of ≥ 7.70
